ASSAY_NAME: Confirmation Concentration-Response Assay for Epigenetic Modulators
CONDITIONS_USED: murine C127i cells, silenced GFP reporter derepression, imaging; series mostly up to 46 µM
Text: NIH Molecular Libraries Screening Centers Network [MLSCN] NIH Chemical Genomics Center [NCGC] MLSCN Grant: 1 X01 MH079860-01 Assay Provider: Elisabeth D. Martinez, University of Texas SW Medical Center NCGC Assay Overview: The Locus Derepression assay detects the derepression of a GFP reporter that is stably integrated in a region of the genome of murine c127i mammary cells that is presumably silenced. […]
Active and inactive are the calls of the source. Calls come from the whole dose curve; as a rule, active = well fitted activation curve with a large enough effect; inactive = flat fitted curve, though single readings scatter.
Select the correct class. Options are YES for active, NO for inactive and nothing else.

The following molecules have reported results that may help.
| MOLECULE | CLASS_ASSIGNMENT |
| --- | --- |
| c1cnn(-c2nc(N3CCOCC3)nc(N3CCOCC3)n2)c1 | NO |
| O=C(CSc1cccc2cccnc12)N1CCCC1 | YES |

# fetch the recorded call for CCNc1nc(NCC)nc(-n2nc(C)cc2C)n1 here
NO

# fetch the recorded call for Cc1cc(C)n(-c2nc(NC(C)C)nc(NC(C)C)n2)n1 here
NO

# fetch the recorded call for CCOCc1ccc(O)c2ncccc12 here
YES

# fetch the recorded call for CC(C)C(=O)NC(c1ccco1)c1cc([N+](=O)[O-])c2cccnc2c1O (configuration not stated) here
NO

# fetch the recorded call for COC(=O)c1cccc(NC(c2ccccn2)c2ccc3cccnc3c2O)c1 (configuration not stated) here
NO
